# Target under test: Protein deacetylase HDAC6 (Homo sapiens, UniProt Q9UBN7)
# Sequence (Q9UBN7 whole entry): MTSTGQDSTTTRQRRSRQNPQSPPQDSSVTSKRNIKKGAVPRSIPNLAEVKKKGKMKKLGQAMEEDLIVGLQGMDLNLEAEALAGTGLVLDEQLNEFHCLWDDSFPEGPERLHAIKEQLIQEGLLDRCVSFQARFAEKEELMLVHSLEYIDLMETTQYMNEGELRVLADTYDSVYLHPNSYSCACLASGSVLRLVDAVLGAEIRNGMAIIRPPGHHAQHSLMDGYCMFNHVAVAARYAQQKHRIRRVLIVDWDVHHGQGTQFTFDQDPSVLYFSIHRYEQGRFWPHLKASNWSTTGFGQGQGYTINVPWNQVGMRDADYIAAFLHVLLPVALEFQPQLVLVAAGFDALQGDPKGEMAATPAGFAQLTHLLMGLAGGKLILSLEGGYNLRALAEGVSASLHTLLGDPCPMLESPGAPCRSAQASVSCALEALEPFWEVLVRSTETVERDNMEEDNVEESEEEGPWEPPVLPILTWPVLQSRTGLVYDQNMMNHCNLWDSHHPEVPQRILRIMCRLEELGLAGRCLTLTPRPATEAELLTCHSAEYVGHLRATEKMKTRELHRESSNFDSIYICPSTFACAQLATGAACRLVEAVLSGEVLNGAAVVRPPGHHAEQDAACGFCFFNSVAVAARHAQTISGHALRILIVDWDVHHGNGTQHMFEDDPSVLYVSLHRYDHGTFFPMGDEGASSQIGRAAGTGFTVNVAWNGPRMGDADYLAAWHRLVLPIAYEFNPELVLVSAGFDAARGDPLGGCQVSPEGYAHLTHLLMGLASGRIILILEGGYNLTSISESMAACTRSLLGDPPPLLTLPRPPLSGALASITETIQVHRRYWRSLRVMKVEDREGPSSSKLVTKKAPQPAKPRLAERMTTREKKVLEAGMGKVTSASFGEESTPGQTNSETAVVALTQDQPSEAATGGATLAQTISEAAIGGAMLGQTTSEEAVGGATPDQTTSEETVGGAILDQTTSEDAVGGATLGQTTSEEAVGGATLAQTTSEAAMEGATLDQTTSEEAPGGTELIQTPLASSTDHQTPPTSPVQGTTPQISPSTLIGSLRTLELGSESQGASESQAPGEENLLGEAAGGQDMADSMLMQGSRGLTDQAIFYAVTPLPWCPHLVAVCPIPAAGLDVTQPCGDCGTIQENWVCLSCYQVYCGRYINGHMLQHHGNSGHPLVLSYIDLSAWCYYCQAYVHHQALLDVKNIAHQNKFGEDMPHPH
# Test: Inhibition of HDAC6 (unknown origin)
Readout: IC50
Number first, unit second.

Q) Requested read-out: IC50. Entry: COc1ccc2c(C(=O)c3cc(OC)c(OC)c(OO)c3)cn(S(=O)(=O)c3cccc(/C=C/CC(=O)NO)c3)c2c1
A) 276 nM

----------
# Test system: HCT-116
# Test: Antiproliferative activity against human HCT-116 cells assessed as reduction in cell viability by MTT assay
# Format: functional, cell-based
Readout: IC50
Include the unit after the number when you answer.

Q) Would you mind telling me what IC50 value was observed for COc1ccc(CN(C(=O)CC2CCC(C(=O)Nc3ccccc3N)CC2)c2cc(OC)c(OC)c(OC)c2)cc1O (stereo unspecified) ?
A) 0.172 µM

----------
# System: MCF7
# Test: Antiproliferative activity against human MCF7 cells assessed as reduction in cell viability incubated for 72 hrs by MTT assay
# Format: functional, cell-based
# Conditions: MCF7, 72 h
Readout: pIC50
Conceptually, pIC50 converts a concentration in mol/L into minus its log10.

Q) Record COc1cc(/C=C/C(=O)c2ccc(NC(=O)c3ccccc3CN3C(=O)c4ccccc4C3=O)cc2)cc(OC)c1OC : what is its pIC50 with MCF7?
A) 5.73

----------
# Target under test: Histone deacetylase 1 (Homo sapiens, UniProt Q13547)
# Sequence (Q13547 whole entry): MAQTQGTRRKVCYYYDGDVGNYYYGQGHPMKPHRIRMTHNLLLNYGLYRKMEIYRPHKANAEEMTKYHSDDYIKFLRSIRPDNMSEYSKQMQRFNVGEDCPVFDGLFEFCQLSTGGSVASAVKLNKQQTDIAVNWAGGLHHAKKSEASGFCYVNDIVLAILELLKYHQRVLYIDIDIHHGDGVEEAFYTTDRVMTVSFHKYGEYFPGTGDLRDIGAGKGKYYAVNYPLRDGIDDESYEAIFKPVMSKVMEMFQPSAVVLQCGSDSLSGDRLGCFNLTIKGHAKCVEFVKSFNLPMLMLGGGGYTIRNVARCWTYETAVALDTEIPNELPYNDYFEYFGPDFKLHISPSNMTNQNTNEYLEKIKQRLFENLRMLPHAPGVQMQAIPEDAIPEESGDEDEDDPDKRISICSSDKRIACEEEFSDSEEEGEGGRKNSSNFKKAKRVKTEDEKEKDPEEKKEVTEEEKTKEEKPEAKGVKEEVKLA
# Test: Inhibition of human recombinant HDAC1 using Boc-Lys(Ac)-AMC or Boc-Lys(Tfa)-AMC as substrate incubated for 1 hr by fluorescence based analysis
Readout: pIC50
The scale used: pIC50 is minus the common logarithm of the concentration in molar units.

Q) Item COc1ccc2c(C(=O)c3cc(OC)c(OC)c(OO)c3)cn(Cc3ccc(C(=O)NO)cc3)c2c1 has what recorded pIC50?
A) 6.24

----------
# Target under test: Tubulin
# Test: Inhibition of tubulin polymerization (unknown origin) by fluorescence based assay
# Format: protein-complex assay, Homo sapiens
Readout: IC50 (µM)
Give just the number in µM; leave the unit off.

Q) State the recorded IC50 for this entry: CNC(=O)CCCCOc1nc(-c2ccc(OC)cc2)cc(-c2cc(OC)c(OC)c(OC)c2)c1C#N
A) 3.52

----------
# Target under test: Histone deacetylase 2 (Homo sapiens, UniProt Q92769)
# Sequence (Q92769 whole entry): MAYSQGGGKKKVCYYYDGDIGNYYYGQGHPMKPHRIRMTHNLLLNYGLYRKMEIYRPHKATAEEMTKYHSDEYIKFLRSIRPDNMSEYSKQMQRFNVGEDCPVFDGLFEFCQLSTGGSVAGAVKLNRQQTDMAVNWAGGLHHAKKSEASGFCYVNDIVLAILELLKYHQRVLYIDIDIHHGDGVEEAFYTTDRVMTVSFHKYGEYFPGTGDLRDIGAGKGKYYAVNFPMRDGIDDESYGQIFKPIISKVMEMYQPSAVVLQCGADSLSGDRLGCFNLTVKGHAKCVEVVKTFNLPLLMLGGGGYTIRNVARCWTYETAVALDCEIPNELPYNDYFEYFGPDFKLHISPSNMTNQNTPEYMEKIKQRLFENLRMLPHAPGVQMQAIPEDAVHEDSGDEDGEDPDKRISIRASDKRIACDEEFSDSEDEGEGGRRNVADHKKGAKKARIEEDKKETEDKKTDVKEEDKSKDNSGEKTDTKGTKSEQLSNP
# Test: Inhibition of human recombinant HDAC2 extracted from baculovirus infected Sf9 insect cells using Ac-Leu-Gly-Lys(Ac)-AMC as substrate preincubated for 30 mins followed by substrate addition measured after 1 hr by fluorescence based analysis
Readout: IC50
The answer should read as a number with its unit following.

Q) // lookup IC50 for COc1ccc2c(C(=O)c3cc(OC)c(OC)c(OO)c3)cn(Cc3ccc(C(=O)NO)cc3)c2c1
A) 1410 nM

----------
# Target under test: Protein deacetylase HDAC6 (Homo sapiens, UniProt Q9UBN7)
# Test: Inhibition of human recombinant HDAC6 using Boc-Lys(Ac)-AMC as substrate preincubated for 15 mins followed by substrate addition and measured after 60 mins by fluorescence based microplate reader analysis
Readout: pIC50
In textbook form, pIC50 equals minus log to base ten of the concentration in mol/L.

Q) Given COc1ccc2c(C(=O)c3cc(OC)c(OC)c(OO)c3)cn(Cc3ccc(C(=O)NO)cc3)c2c1 , state its recorded pIC50.
A) 7.19
